# TESTED_TARGET: KPC-2 (Klebsiella pneumoniae)
# Sequence (Q9F663 25-293 limits assumed): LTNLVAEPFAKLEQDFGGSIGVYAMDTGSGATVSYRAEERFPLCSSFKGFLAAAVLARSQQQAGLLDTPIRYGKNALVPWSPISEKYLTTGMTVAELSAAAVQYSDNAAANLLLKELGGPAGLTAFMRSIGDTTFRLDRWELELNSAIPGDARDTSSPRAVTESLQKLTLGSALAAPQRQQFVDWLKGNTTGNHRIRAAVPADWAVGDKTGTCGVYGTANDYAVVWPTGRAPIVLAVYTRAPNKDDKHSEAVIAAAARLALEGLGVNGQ
# METHOD: β-Lactamase enzyme inhibition assay, KPC-2 (imipenem substrate)
# RUN_PARAMETERS: 15 min preincubation at 37° C., read-out: IC50, Class A KPC-2
pIC50: −log10 of the molar value.
READOUT_LABEL: pIC50

ITEM_SMILES	TESTED_TARGET	ASSAY_VALUE
O=C(Cc1ccc2c(c1)CNC2)N[C@H]1Cc2cccc(C(=O)O)c2OB1O	KPC-2 (Klebsiella pneumoniae)	> 7.00

* * *

Reported MIC values for a set of molecules
# Test system: K. pneumoniae 156319 expressing KPC-3
# METHOD: Broth microdilution MIC assay, partner meropenem
# Format: cell-based
# RUN_PARAMETERS: Klebsiella pneumoniae, read-out: MIC of Exemplary Compounds in presence of fixed β-lactams, Fixed Mero, K.P. 156319 KPC-3
READOUT_LABEL: MIC

MOLECULE	ASSAY_VALUE
O=C(O)c1cccc2c1OB(O)[C@@H](NC(=O)c1cccc3[nH]ccc13)C2 [Example 32]	< 4 µg/mL
O=C(Cc1ccc2cc[nH]c2c1)N[C@H]1Cc2cccc(C(=O)O)c2OB1O [Example 46]	< 4 µg/mL
CN(C)Cc1ccc(C(=O)N[C@H]2Cc3cccc(C(=O)O)c3OB2O)cc1N [Example 18]	< 4 µg/mL
O=C1Cc2cc(C(=O)N[C@H]3Cc4cccc(C(=O)O)c4OB3O)ccc2N1 [Example 33]	< 4 µg/mL
CN(C)Cc1ccc(C(=O)N[C@H]2Cc3cccc(C(=O)O)c3OB2O)cc1NC(=O)[C@@H](N)CN [Example 21]	8 to 32 µg/mL
O=C(N[C@H]1Cc2cccc(C(=O)O)c2OB1O)c1ccc(O)c(O)c1 [Example 39]	< 4 µg/mL
O=C(N[C@H]1Cc2cccc(C(=O)O)c2OB1O)c1ccc2c(c1)CNC2 [Example 9]	< 4 µg/mL
NCCn1ccc2ccc(C(=O)N[C@H]3Cc4cccc(C(=O)O)c4OB3O)cc21 [Example 41]	> 32 µg/mL
NCc1ccc(CC(=O)N[C@H]2Cc3cccc(C(=O)O)c3OB2O)cc1CN [Example 20]	< 4 µg/mL
O=C(N[C@H]1Cc2cccc(C(=O)O)c2OB1O)c1ccc(-c2ncc[nH]2)cc1 [Example 47]	< 4 µg/mL
O=C(N[C@H]1Cc2cccc(C(=O)O)c2OB1O)c1ccc2c(c1)CCNC2 [Example 5]	< 4 µg/mL
N=C(N)NCc1cc(CNC(=N)N)cc(C(=O)N[C@H]2Cc3cccc(C(=O)O)c3OB2O)c1 [Example 45]	< 4 µg/mL
NCCNc1ccc(CC(=O)N[C@H]2Cc3cccc(C(=O)O)c3OB2O)c[n+]1[O-] [Example 61]	< 4 µg/mL
O=C(Cc1ccc(O)c(O)c1)N[C@H]1Cc2cccc(C(=O)O)c2OB1O [Example 38]	< 4 µg/mL
NCCOc1ccc(CC(=O)N[C@H]2Cc3cccc(C(=O)O)c3OB2O)cc1O [Example 59]	< 4 µg/mL
CC(C)NCc1ccc(C(=O)N[C@H]2Cc3cccc(C(=O)O)c3OB2O)cc1CNC(C)C [Example 56]	< 4 µg/mL

* * *

# Test system: K. pneumoniae 156319 expressing KPC-3
# METHOD: Broth microdilution MIC assay, partner meropenem
# Format: cell-based
# RUN_PARAMETERS: Klebsiella pneumoniae, read-out: MIC of Exemplary Compounds in presence of fixed β-lactams, Fixed Mero, K.P. 156319 KPC-3

ITEM_SMILES	TESTED_TARGET	MIC
NCc1ccc(C(=O)N[C@H]2Cc3cccc(C(=O)O)c3OB2O)cc1CN	K. pneumoniae 156319 expressing KPC-3	< 4 µg/mL
Cn1ccc2ccc(C(=O)N[C@H]3Cc4cccc(C(=O)O)c4OB3O)cc21	K. pneumoniae 156319 expressing KPC-3	> 32 µg/mL
CN1CCc2c(C(=O)N[C@H]3Cc4cccc(C(=O)O)c4OB3O)csc2C1	K. pneumoniae 156319 expressing KPC-3	< 4 µg/mL
CC(C)NCc1cc(C(=O)N[C@H]2Cc3cccc(C(=O)O)c3OB2O)ccc1CN	K. pneumoniae 156319 expressing KPC-3	8 to 32 µg/mL
NC1=NCc2ccc(C(=O)N[C@H]3Cc4cccc(C(=O)O)c4OB3O)cc2CN1	K. pneumoniae 156319 expressing KPC-3	< 4 µg/mL
CN1Cc2ccc(C(=O)N[C@H]3Cc4cccc(C(=O)O)c4OB3O)cc2C1	K. pneumoniae 156319 expressing KPC-3	< 4 µg/mL
CN1CCc2cc(C(=O)N[C@H]3Cc4cccc(C(=O)O)c4OB3O)ccc2C1	K. pneumoniae 156319 expressing KPC-3	8 to 32 µg/mL
NCCOc1ccc(CC(=O)N[C@H]2Cc3cccc(C(=O)O)c3OB2O)cc1OCCN	K. pneumoniae 156319 expressing KPC-3	< 4 µg/mL

* * *

# System: P. aeruginosa Ps296 expressing VIM-2
# METHOD: Broth microdilution MIC assay, partner meropenem
# Type: cell-based
# RUN_PARAMETERS: Pseudomonas aeruginosa, read-out: MIC of Exemplary Compounds in presence of fixed β-lactams, Fixed Mero, P. aerug. Ps296 VIM-2
READOUT_LABEL: MIC

ITEM_SMILES	READOUT_LABEL	ASSAY_VALUE
O=C(Cc1ccc2c(c1)CNC2)N[C@H]1Cc2cccc(C(=O)O)c2OB1O	MIC	< 4 µg/mL
N=C(N)N1Cc2ccc(C(=O)N[C@H]3Cc4cccc(C(=O)O)c4OB3O)cc2C1	MIC	< 4 µg/mL
O=C(N[C@H]1Cc2cccc(C(=O)O)c2OB1O)c1cnc2c(c1)CNC2	MIC	< 4 µg/mL
O=C(N[C@H]1Cc2cccc(C(=O)O)c2OB1O)c1ccc2cc[nH]c2c1	MIC	< 4 µg/mL
Cc1ccc(C(=O)N[C@H]2Cc3cccc(C(=O)O)c3OB2O)cc1N	MIC	8 to 32 µg/mL
O=C(N[C@H]1Cc2cccc(C(=O)O)c2OB1O)c1ccc2nccnc2c1	MIC	> 32 µg/mL
O=C(O)c1cccc2c1OB(O)[C@@H](NC(=O)c1cccc3cc[nH]c13)C2	MIC	8 to 32 µg/mL
NC1=NCc2ccc(C(=O)N[C@H]3Cc4cccc(C(=O)O)c4OB3O)cc2CN1	MIC	8 to 32 µg/mL
NCc1ccc(C(=O)N[C@H]2Cc3cccc(C(=O)O)c3OB2O)cc1CN	MIC	< 4 µg/mL

* * *

# TESTED_TARGET: VIM-2 (Escherichia coli)
# Construct: made in house; host or cells: E. coli BL21(DE3)
# METHOD: β-Lactamase enzyme inhibition assay, VIM-2 (nitrocefin substrate)
# Format: biochemical
# RUN_PARAMETERS: nitrocefin substrate 100 μM, 15 min preincubation at 37° C.; read-out: IC50, Class B VIM-2
pIC50: −log10 of the molar value.
Below: a set of entries, each annotated with reported pIC50.

COMPOUND	pIC50
NCc1cc(CN)cc(C(=O)N[C@H]2Cc3cccc(C(=O)O)c3OB2O)c1 [Example 44]	5.00 to 6.00
NCCOc1ccc(C(=O)N[C@H]2Cc3cccc(C(=O)O)c3OB2O)cc1O [Example 40]	> 7.00
N=C(N)NCc1cc(CNC(=N)N)cc(C(=O)N[C@H]2Cc3cccc(C(=O)O)c3OB2O)c1 [Example 45]	> 7.00
O=C(Cc1ccc(O)c(O)c1)N[C@H]1Cc2cccc(C(=O)O)c2OB1O [Example 38]	6.00 to 7.00
CN(C)Cc1ccc(C(=O)N[C@H]2Cc3cccc(C(=O)O)c3OB2O)cc1NC(=O)[C@@H](N)CN [Example 21]	> 7.00
O=C(Cc1ccc2c(c1)CNC2)N[C@H]1Cc2cccc(C(=O)O)c2OB1O [Example 36]	6.00 to 7.00
NCc1cnc(C(=O)N[C@H]2Cc3cccc(C(=O)O)c3OB2O)cc1CN [Example 63]	> 7.00
O=C(N[C@H]1Cc2cccc(C(=O)O)c2OB1O)c1ccc(-c2ncc[nH]2)cc1 [Example 47]	6.00 to 7.00

* * *

# TESTED_TARGET: UniProt:P05364
# Sequence (P05364 21-381): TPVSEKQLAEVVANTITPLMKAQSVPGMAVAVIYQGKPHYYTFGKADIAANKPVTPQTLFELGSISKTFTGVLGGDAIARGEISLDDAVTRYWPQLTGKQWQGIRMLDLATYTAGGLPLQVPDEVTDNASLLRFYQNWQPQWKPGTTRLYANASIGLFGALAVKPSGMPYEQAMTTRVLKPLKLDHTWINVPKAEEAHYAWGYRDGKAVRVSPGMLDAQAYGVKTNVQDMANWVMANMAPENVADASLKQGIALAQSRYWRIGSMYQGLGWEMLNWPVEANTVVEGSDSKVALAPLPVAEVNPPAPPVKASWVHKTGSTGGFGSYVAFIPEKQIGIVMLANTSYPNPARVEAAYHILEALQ
# METHOD: β-Lactamase enzyme inhibition assay, p99 AmpC (nitrocefin substrate)
# RUN_PARAMETERS: nitrocefin substrate 100 μM, 15 min preincubation at 37° C.; read-out: IC50, Class C AmpC
pIC50: −log10 of the molar value.

MOLECULE	pIC50
O=C(Cc1ccc2c(c1)CNC2)N[C@H]1Cc2cccc(C(=O)O)c2OB1O [Example 36]	> 7.00

* * *

# TESTED_TARGET: VIM-2 (Escherichia coli, UniProt Q5U7L7)
# Construct: made in house; host or cells: E. coli BL21(DE3)
# METHOD: β-Lactamase enzyme inhibition assay, VIM-2 (nitrocefin substrate)
# Format: biochemical
# RUN_PARAMETERS: nitrocefin substrate 100 μM, 15 min preincubation at 37° C.; read-out: IC50, Class B VIM-2
# Procedure: For Vim-2 metallo β-lactamase, the procedure was identical with the following exceptions, first the protein was not pH adjusted to pH 5 with 50 mM sodium acetate, second, the chromatography step was changed to a 5 ml Q sepharose anion exchange column pre-equilibrated with 50 mM Hepes pH 7.5, and elution of the protein was achieved by a linear gradient of NaCl (0-600 mM). […]

MOLECULE	IC50
N=C(N)NCc1ccc(C(=O)N[C@H]2Cc3cccc(C(=O)O)c3OB2O)cc1CNC(=N)N [Example 25]	< 100 nM
O=C(N[C@H]1Cc2cccc(C(=O)O)c2OB1O)c1cnc2c(c1)CNC2 [Example 50]	100 to 1000 nM
CNCc1ccc(C(=O)N[C@H]2Cc3cccc(C(=O)O)c3OB2O)cc1CNC [Example 19]	< 100 nM
NC1=Nc2cc(C(=O)N[C@H]3Cc4cccc(C(=O)O)c4OB3O)ccc2CN1 [Example 15]	1000 to 10000 nM

These measurements were taken from patent US9403850B2.
